Entries below carry reported pKi on JAK2 (Homo sapiens (Human), UniProt O60674).
Sequence (O60674 whole entry): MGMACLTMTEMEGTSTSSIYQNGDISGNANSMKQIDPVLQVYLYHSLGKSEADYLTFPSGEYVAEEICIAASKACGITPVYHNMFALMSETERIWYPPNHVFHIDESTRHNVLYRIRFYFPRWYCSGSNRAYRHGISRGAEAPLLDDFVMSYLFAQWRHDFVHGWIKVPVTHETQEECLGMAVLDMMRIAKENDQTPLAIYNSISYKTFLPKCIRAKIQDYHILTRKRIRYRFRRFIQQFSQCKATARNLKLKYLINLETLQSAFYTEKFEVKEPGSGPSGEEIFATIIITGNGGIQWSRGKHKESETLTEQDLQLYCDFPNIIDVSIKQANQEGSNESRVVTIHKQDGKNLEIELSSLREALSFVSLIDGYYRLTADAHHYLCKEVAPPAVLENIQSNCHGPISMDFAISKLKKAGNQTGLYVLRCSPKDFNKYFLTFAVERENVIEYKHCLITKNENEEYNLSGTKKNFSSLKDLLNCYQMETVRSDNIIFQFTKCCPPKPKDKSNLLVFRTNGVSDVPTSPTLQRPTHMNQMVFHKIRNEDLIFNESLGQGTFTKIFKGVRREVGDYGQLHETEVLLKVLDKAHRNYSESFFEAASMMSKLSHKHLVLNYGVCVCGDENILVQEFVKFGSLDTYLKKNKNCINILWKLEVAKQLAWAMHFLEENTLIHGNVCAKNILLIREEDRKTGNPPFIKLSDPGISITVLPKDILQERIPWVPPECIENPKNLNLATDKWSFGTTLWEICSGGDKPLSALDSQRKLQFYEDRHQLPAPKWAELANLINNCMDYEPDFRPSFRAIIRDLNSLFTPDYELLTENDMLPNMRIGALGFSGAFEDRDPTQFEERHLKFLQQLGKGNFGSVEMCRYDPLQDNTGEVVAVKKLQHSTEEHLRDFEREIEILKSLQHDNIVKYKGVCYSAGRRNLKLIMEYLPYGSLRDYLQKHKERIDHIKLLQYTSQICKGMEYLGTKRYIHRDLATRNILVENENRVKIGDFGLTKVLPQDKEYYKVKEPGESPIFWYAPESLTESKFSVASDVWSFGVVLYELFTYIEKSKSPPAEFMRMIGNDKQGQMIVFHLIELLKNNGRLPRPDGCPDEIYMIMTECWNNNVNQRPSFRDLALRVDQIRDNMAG
pKi: −log10 of the molar value.

Example compounds with recorded pKi:
N#Cc1cccc(F)c1-c1cc(-n2ccc(N3CCOC[C@@H]3CO)n2)c2c(n1)CNC2=O [I-163]	8.00 to 10.00
N#Cc1cccc(F)c1-c1cc(-n2ccc(N3CCC[C@H](O)[C@H](O)C3)n2)c2c(n1)CNC2=O [I-115]	7.00 to 8.00
N#Cc1cccc(F)c1-c1cc(-c2cc3n(n2)CC(O)CN3)c2c(n1)CNC2=O (stereo not shown) [I-235]	8.00 to 10.00
[2H]C1([2H])C[C@H](O)C([2H])([2H])N1c1ccn(-c2cc(-c3c(F)cccc3C#N)nc3c2C(=O)NC3)n1 [I-142]	8.00 to 10.00
CO[C@@H]1CCN(c2ccn(-c3cc(-c4c(F)cccc4C#N)nc4c3C(=O)NC4)n2)C[C@]1(C)O [I-228]	7.00 to 8.00
N#Cc1cccc(F)c1-c1cc(-n2ccc(N3CCCC(O)(C(F)(F)F)C3)n2)c2c(n1)CNC2=O (stereo not shown) [I-80]	7.00 to 8.00

Would you mind giving pKi for every compound in the list below?
1. N#Cc1cccc(F)c1-c1cc(-n2ccc(N3CCC[C@@H](O)[C@@H](O)C3)n2)c2c(n1)CNC2=O [I-179]
2. CO[C@@H]1CCN(c2ccn(-c3cc(-c4c(F)cccc4C#N)nc4c3C(=O)NC4)n2)C[C@]1(C)O [I-213]
3. N#Cc1cccc(F)c1-c1cc(-n2ccc(N3CCC[C@H](N4CCOCC4)C3)n2)c2c(n1)CNC2=O [I-157]
4. N#Cc1cccc(F)c1-c1cc(-n2cc(F)c(N3CC[C@H](O)C3)n2)c2c(n1)CNC2=O [I-190]
5. CC1(C)C(O)CCN1c1ccn(-c2cc(-c3c(F)cccc3C#N)nc3c2C(=O)NC3)n1 (stereo not shown) [I-187]
6. N#Cc1cccc(F)c1-c1cc(-n2ccc(CC(=O)O)n2)c2c(n1)CNC2=O [I-102]
7. N#Cc1cccc(F)c1-c1cc(-n2ccc(N3CC[C@]4(C3)OC[C@H](O)CO4)n2)c2c(n1)CNC2=O [I-221]

7.00 to 8.00
7.00 to 8.00
7.00 to 8.00
7.00 to 8.00
8.00 to 10.00
≤ 6.00
8.00 to 10.00
